- Test system: NCI-H460
- protocol-summary: Cytotoxicity against human NCI-H460 cells after 72 hrs by MTT assay
- Type: functional, cell-based
- assay-conditions: Homo sapiens, NCI-H460, 72 h
IC50 listing for selected molecules.
Please state the figure in µg/mL; there is no need to write the unit.

Previously resolved entries follow.
>>> numeric_result("Cn1cc(C(Nc2ccccn2)c2ccc(C(F)(F)F)cc2)c2ccccc21 (stereo unspecified)")
16
>>> numeric_result("Fc1ccc(C(Nc2ccccn2)c2c[nH]c3ccccc23)cc1 (stereo unspecified)")
24
>>> numeric_result("Cn1cc(C(Nc2ccccn2)c2ccc(Cl)cc2)c2ccccc21 (stereo unspecified)")
32.1
>>> numeric_result("Clc1ccc(C(Nc2ccccn2)c2c[nH]c3ccccc23)cc1 (stereo unspecified)")
17.4
>>> numeric_result("FC(F)(F)c1ccc(C(Nc2ccccn2)c2c[nH]c3ccccc23)cc1 (stereo unspecified)")
8.6
>>> numeric_result("Cn1cc(C(Nc2ccccn2)c2ccc(F)cc2)c2ccccc21 (stereo unspecified)")
49.1

Look up IC50: Cn1cc(C(Nc2ccccn2)c2ccccc2F)c2ccccc21 (stereo unspecified)
92.6

Try this molecule too: Cn1cc(C(Nc2ccccn2)c2ccccc2Cl)c2ccccc21 (stereo unspecified)
66.7

And Fc1ccccc1C(Nc1nc2ccccc2s1)c1c[nH]c2ccccc12 (stereo unspecified) ?
12.1

====

Parameter: log10(IC50). Scope: all listed entries.
- Test system: NCI-H460
- protocol-summary: Cytotoxicity against human NCI-H460 cells after 72 hrs by MTT assay
- Assay type: functional, cell-based
- assay-conditions: Homo sapiens, NCI-H460, 72 h
Scale: decimal log of IC50, IC50 in µg/mL.

Use these answered entries as a reference point.
>>> numeric_result("CN(C)Cc1c[nH]c2ccccc12 [GRAMINE]")
1.87
>>> numeric_result("O=c1[nH]cc(F)c(=O)[nH]1 [FLUOROURACIL]")
0.86

Using the record for Cn1cc(C(Nc2ccccn2)c2ccncc2)c2ccccc21 (stereo unspecified) , report its log10(IC50).
1.75

One more compound: Clc1ccccc1C(Nc1nc2ccccc2s1)c1c[nH]c2ccccc12 (stereo unspecified)
1.12

Okay, and c1ccc(C(Nc2ccccn2)c2c[nH]c3ccccc23)cc1 (stereo unspecified) ?
1.55

====

- Tested on: SGC-7901
- protocol-summary: Cytotoxicity against human SGC7901 cells after 72 hrs by MTT assay
- Assay type: functional, cell-based
- assay-conditions: Homo sapiens, SGC-7901, 72 h
readout-label: IC50

>>> result("c1ccc(NC(c2ccncc2)c2c[nH]c3ccccc23)nc1 (stereo not drawn)")
"> 100 µg/mL"
>>> result("Cn1cc(C(Nc2ccccn2)c2ccccn2)c2ccccc21 (stereo not drawn)")
"> 100 µg/mL"

# next compound below
Give SGC-7901 IC50 for Cn1cc(C(Nc2nc3ccccc3s2)c2ccccc2F)c2ccccc21 (stereo not drawn)
> 100 µg/mL

====

- Test system: BGC-823
- protocol-summary: Cytotoxicity against human BGC823 cells after 72 hrs by MTT assay
- Format: functional, cell-based
- assay-conditions: Homo sapiens, BGC-823, 72 h
Measured IC50 by item

In the examples that follow, each entry is paired with its recorded IC50.
>>> result("c1ccc(NC(c2ccncc2)c2c[nH]c3ccccc23)nc1 (stereo not drawn)")
"> 100 µg/mL"
>>> result("Cn1cc(C(Nc2nc3ccccc3s2)c2ccccc2F)c2ccccc21 (stereo not drawn)")
"> 100 µg/mL"

Next up:
Return IC50 measured with BGC-823 given this compound: Cn1cc(C(Nc2ccccn2)c2ccccn2)c2ccccc21 (stereo not drawn)
> 100 µg/mL
